- MEASUREMENT PROTOCOL: Example 4: dose response of FKBP constructs 160-255, Ec50, Ec90 and fold change (raw and normalized to mCherry)
- Type: cell-based
- STUDY CONDITIONS: fold change during initial analysis
ATTRIBUTE MEASURED: FC (fold change)
Answer using only a numeral; do not append any unit.

(Q) What does the record list as FC (fold change) for FKBP-207 (protein, Description of sequence: Construct Name: FKBP-207; Mutation(s): Q72R Q84E A117W V85R DRD M54A I136V) HCPIKSRKGDVLHAHYTGKLEDGTEFDSSLPRNQPFVFSLGTGERIKGWDQGLLGMCEGEKRKLVIPSELGYGERGWPPKIPGGATLVFEVELLKVER ?
(A) 35.4

(Q) What does the record list as FC (fold change) for FKBP-227 (protein, Description of sequence: Construct Name: FKBP-227; Mutation(s): Q72R Q84E A117W DRD E137R) HCPIKSRKGDVLHMHYTGKLEDGTEFDSSLPRNQPFVFSLGTGEVIKGWDQGLLGMCEGEKRKLVIPSELGYGERGWPPKIPGGATLVFEVELLKIRR ?
(A) 29.0

(Q) What does the record list as FC (fold change) for FKBP-201: FKBP13 DRD-AcGFP construct of Table 10 (protein, Description of sequence: Construct Name: FKBP-201; Mutation(s): Q72R Q84E A117W V85R DRD H53L) HCPIKSRKGDVLLMHYTGKLEDGTEFDSSLPRNQPFVFSLGTGERIKGWDQGLLGMCEGEKRKLVIPSELGYGERGWPPKIPGGATLVFEVELLKIER ?
(A) 33.1
